MEASURED_ON: EGFR T790M/L858R Ba/F3 cell line (Homo sapiens, UniProt P00533, T790M/L858R, cells depend on it)
Construct: "The constructs were shuttled into the retroviral vector JP1540 using the BD Creator™ System (BD Biosciences)
Sequence (P00533 whole entry T790M/L858R): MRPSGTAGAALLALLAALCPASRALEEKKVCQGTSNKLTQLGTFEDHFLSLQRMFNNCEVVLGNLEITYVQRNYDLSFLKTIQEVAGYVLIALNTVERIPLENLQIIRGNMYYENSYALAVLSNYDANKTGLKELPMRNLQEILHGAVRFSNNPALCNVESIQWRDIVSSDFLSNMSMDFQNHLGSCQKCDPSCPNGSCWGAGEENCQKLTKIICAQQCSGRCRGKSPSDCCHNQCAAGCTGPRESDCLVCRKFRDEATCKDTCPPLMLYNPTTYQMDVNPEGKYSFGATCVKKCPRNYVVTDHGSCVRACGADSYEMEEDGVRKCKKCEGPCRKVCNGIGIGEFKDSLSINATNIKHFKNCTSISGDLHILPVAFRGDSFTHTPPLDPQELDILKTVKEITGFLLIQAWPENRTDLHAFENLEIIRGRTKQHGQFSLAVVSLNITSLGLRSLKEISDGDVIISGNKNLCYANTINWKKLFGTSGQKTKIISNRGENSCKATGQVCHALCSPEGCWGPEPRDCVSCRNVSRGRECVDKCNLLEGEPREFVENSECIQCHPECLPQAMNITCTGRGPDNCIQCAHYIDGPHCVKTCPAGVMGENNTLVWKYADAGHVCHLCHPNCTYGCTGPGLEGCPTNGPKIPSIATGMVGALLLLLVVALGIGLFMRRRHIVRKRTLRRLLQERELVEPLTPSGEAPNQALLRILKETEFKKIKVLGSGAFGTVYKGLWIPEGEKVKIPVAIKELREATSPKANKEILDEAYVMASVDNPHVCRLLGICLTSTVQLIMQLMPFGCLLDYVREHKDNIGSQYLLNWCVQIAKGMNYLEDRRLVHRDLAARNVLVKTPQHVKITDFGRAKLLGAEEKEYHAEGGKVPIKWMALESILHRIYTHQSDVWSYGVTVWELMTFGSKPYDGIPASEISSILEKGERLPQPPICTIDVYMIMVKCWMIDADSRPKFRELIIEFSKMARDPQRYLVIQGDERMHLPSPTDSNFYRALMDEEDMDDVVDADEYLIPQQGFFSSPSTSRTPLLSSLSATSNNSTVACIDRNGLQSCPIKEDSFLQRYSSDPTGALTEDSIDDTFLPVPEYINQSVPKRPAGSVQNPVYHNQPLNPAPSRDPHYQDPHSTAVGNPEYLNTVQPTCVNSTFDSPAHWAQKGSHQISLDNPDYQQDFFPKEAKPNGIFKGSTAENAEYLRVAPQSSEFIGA
PROTOCOL_SUMMARY: Ba/F3 cell proliferation (MTS assay), EGFR T790M/L858R
Format: cell-based, murine
CONDITION_NOTES: read-out: Ba/F3 cellular activity (EC50) T790M/L858R + Cetuximab (1 μg/mL); presence of 1 μg/mL cetuximab
Experimental: All cell lines were maintained in RPM 1640 (Cellgro; Mediatech Inc., Herndon, Calif.) supplemented with 10% FBS 100 units/mL penicillin, 100 units/mL streptomycin, and 2 mM glutamine. […] Growth and inhibition of growth was assessed by MTS assay and was performed according to previously established methods (Zhou 2009). […]
pEC50: −log10 of the molar value.
For each entry below, report its pEC50 value.

# annotated cases, reported pEC50 shown
• CN1CCC(n2cc(-c3ccc4c(c3)C(=O)N(Cc3cccc5cc[nH]c35)c3cc(F)ccc3N4)cn2)CC1 [Compound I-25] = ≤ 6.12
• O=C1c2cc(-c3ccc(N4CCNCC4)cc3)ccc2Nc2ccc(F)cc2N1Cc1cccc2cc[nH]c12 [Compound I-18] = > 6.60
• O=C1c2cc(-c3ccc(N4CCNCC4)cc3)ccc2Nc2ncc(F)cc2N1Cc1ccccc1 [Compound I-12] = ≤ 6.12
• O=C1c2cc(-c3ccc4[nH]ccc4c3)ccc2Nc2ccc(F)cc2N1Cc1cccnc1 [Compound I-9] = ≤ 6.12
• CN1CCC(n2cc(-c3ccc4c(c3)C(=O)N(Cc3cc(F)cc(F)c3)c3cc(F)ccc3N4)cn2)CC1 [Compound I-24] = ≤ 6.12

For every item below, please supply its pEC50.
1. CN1CCN(c2ccc(Oc3ccc4c(c3)C(=O)N(Cc3ccccc3)c3cc(F)ccc3N4)cc2)CC1 [Compound I-20]
2. O=C1c2cc(-c3ccc4[nH]ccc4c3)ccc2Nc2ccc(F)cc2N1c1ccccc1 [Compound I-8]
3. O=C1c2cc(-c3ccc4[nH]ccc4c3)ccc2Nc2ccc(F)cc2N1Cc1ccccc1 [Compound I-2]
4. Nc1ccc2c(c1)N(Cc1ccccc1)C(=O)c1cc(-c3ccc4[nH]ccc4c3)ccc1N2 [Compound I-14]
5. O=C1c2cc(-c3ccc(N4CCNCC4)cc3)ccc2Nc2ccc(F)cc2N1Cc1nccs1 [Compound I-7]
6. O=C1c2cc(-c3ccc(N4CCNCC4)cc3)ccc2Nc2ccncc2N1Cc1ccccc1 [Compound I-13]
7. CN1CCC(n2cc(-c3ccc4c(c3)C(=O)N(Cc3cccc(Cl)c3)c3cc(F)ccc3N4)cn2)CC1 [Compound I-23]

Resp:
["6.30 to 6.60", "≤ 6.12", "> 6.60", "≤ 6.12", "≤ 6.12", "≤ 6.12", "≤ 6.12"]

Dear colleague, could you send me pEC50 for each of the items below? Thanks.
1. CC(=O)Nc1ccc2c(c1)N(Cc1ccccc1)C(=O)c1cc(-c3ccc4[nH]ccc4c3)ccc1N2 [Compound I-15]
2. O=C1c2cc(-c3ccc(N4CCNCC4)cc3)ccc2Nc2ccc(F)cc2N1Cc1ccc2cc[nH]c2c1 [Compound I-19]
3. O=C1c2cc(-c3ccc4[nH]ccc4c3)ccc2Nc2ccc(F)cc2N1Cc1nccs1 [Compound I-10]
4. O=C1c2cc(Br)ccc2Nc2ccc(F)cc2N1Cc1ccccc1 [I-a]

Resp:
1: ≤ 6.12; 2: ≤ 6.12; 3: ≤ 6.12; 4: 6.30 to 6.60

* * *

MEASURED_ON: EGFR T790M/L858R Ba/F3 cell line (Homo sapiens, UniProt P00533, T790M/L858R, cells depend on it)
Construct: "The constructs were shuttled into the retroviral vector JP1540 using the BD Creator™ System (BD Biosciences)
PROTOCOL_SUMMARY: Ba/F3 cell proliferation (MTS assay), EGFR T790M/L858R
Type: cell-based, murine
CONDITION_NOTES: compound at 1 μM; EGFR T790M/L858R Ba/F3
MEASUREMENT_KIND: Activity (% DMSO control); inhibition of proliferation

- O=C1c2cc(-c3ccc(-c4cn[nH]c4)cc3)ccc2Nc2ccc(F)cc2N1Cc1ccccc1: D (75 ≤ D)
- O=C1c2cc(-c3ccc4[nH]ccc4c3)ccc2Nc2ccc(F)cc2N1Cc1cccnc1: D (75 ≤ D)
- O=C1c2cc(-c3ccc(N4CCNCC4)cc3)ccc2Nc2ccc(F)cc2N1Cc1ccccc1: D (75 ≤ D)

* * *

MEASURED_ON: recombinant EGFR T790M/L858R kinase (Homo sapiens, UniProt P00533, L858R/T790M)
Construct: Constructs spanning residues 696-1022 of the human EGFR; GST (cleaved yes)
Sequence (P00533 696-1022 T790M/L858R): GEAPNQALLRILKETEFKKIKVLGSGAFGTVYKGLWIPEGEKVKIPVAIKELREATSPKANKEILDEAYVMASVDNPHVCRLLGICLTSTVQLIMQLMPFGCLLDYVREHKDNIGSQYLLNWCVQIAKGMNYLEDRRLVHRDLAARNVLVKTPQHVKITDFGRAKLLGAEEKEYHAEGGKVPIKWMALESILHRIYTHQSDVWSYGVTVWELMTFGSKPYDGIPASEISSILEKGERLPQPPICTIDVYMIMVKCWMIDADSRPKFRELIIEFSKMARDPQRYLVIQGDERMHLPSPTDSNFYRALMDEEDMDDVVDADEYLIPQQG
PROTOCOL_SUMMARY: HTRF-based EGFR biochemical assay
Hi there, I'd appreciate the recorded IC50 for every entry that follows.

Reference set (6 entries):
- CC(=O)Nc1ccc2c(c1)N(Cc1ccccc1)C(=O)c1cc(-c3ccc4[nH]ccc4c3)ccc1N2 [Compound I-15]: ≥ 750 nM
- O=C1c2cc(Br)ccc2Nc2ccc(F)cc2N1Cc1ccccc1 [I-a]: < 250 nM
- O=C1c2cc(-c3ccc(-c4cn[nH]c4)cc3)ccc2Nc2ccc(F)cc2N1Cc1ccccc1 [Compound I-4]: < 250 nM
- O=C1c2cc(-c3ccc(N4CCNCC4)cc3)ccc2Nc2ccc(F)cc2N1Cc1cccc2cc[nH]c12 [Compound I-18]: < 250 nM
- CN1CCC(n2cc(-c3ccc4c(c3)C(=O)N(Cc3cccc(F)c3)c3cc(F)ccc3N4)cn2)CC1 [Compound I-22]: < 250 nM
- CN1CCC(n2cc(-c3ccc4c(c3)C(=O)N(Cc3cccc(Cl)c3)c3cc(F)ccc3N4)cn2)CC1 [Compound I-23]: < 250 nM

Working through the 6 compounds below one at a time, give IC50 for each.
1. O=C1c2cc(-c3ccc(N4CCNCC4)cc3)ccc2Nc2ccc(F)cc2N1Cc1cccnc1 [Compound I-6]
2. O=C1c2cc(-c3ccc4[nH]ccc4c3)ccc2Nc2ccc(F)cc2N1Cc1cccnc1 [Compound I-9]
3. O=C1c2cc(-c3ccc4[nH]ccc4c3)ccc2Nc2ccc(F)cc2N1Cc1ccccc1 [Compound I-2]
4. Nc1ccc2c(c1)N(Cc1ccccc1)C(=O)c1cc(-c3ccc4[nH]ccc4c3)ccc1N2 [Compound I-14]
5. CN1CCC(n2cc(-c3ccc4c(c3)C(=O)N(Cc3cccc5cc[nH]c35)c3cc(F)ccc3N4)cn2)CC1 [Compound I-25]
6. O=C1c2cc(-c3ccc(N4CCNCC4)cc3)ccc2Nc2ccc(F)cc2N1Cc1nccs1 [Compound I-7]

Resp:
≥ 750 nM
≥ 750 nM
< 250 nM
≥ 750 nM
< 250 nM
< 250 nM

Value (IC50, recombinant EGFR T790M/L858R kinase (Homo sapiens, UniProt P00533, L858R/T790M)) for record CCC(=O)Nc1ccc2c(c1)N(Cc1ccccc1)C(=O)c1cc(-c3ccc4[nH]ccc4c3)ccc1N2 [Compound I-16] = ≥ 750 nM
